Entry source: PubChem BioAssay AID1159605

Biological target: Mitogen-activated protein kinase kinase kinase 5 (Homo sapiens) (UniProt Q99683)
Sequence (Q99683 whole entry, looked up): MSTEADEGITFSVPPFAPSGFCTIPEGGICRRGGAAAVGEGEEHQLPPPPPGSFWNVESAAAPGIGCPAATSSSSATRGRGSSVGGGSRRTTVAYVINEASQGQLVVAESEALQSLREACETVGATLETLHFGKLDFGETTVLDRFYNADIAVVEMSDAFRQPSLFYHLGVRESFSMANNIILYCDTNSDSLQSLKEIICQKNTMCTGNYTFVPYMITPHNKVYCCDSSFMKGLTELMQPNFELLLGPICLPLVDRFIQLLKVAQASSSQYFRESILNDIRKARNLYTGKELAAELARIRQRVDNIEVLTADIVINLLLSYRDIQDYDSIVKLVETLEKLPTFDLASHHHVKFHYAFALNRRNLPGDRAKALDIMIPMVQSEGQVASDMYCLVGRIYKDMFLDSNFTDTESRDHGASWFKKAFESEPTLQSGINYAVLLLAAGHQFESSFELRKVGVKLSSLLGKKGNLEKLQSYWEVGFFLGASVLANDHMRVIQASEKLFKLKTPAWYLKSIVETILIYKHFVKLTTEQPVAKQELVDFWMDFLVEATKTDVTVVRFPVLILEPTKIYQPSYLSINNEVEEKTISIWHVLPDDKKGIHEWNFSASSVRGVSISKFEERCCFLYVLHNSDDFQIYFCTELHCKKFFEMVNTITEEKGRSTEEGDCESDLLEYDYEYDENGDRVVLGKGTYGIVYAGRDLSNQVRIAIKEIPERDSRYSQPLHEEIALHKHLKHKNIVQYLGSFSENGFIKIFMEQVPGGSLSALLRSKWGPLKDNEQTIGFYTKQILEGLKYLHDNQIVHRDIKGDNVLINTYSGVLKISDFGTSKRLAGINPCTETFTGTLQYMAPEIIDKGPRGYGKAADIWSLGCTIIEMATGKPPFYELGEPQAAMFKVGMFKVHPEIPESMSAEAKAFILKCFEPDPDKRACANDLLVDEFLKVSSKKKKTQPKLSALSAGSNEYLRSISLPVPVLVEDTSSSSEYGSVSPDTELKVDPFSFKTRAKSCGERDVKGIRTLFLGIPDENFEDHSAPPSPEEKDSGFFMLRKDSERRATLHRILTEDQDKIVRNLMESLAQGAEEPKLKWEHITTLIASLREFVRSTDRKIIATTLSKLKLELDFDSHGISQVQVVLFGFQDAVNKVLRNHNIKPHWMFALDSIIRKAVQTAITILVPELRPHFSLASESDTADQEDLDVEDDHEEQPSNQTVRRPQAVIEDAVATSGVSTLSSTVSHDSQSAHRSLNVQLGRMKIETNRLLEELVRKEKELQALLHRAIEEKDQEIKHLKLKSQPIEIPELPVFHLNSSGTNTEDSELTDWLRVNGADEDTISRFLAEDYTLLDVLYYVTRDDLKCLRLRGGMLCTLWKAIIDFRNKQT
Experiment: MAP3K5 inhibition concentration-response curves – biochemical, AlphaScreen, MKK6 phosphorylation, dose response (AID 1159605);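 also: ASK1 phosphorylation of MKK6 substrate detected with anti-phospho-MKK6 antibody beads; inhibitors lower the luminescent signal by blocking MKK6 phosphorylation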
Conditions: ASK1 MKK6 phosphorylation, AlphaScreen luminescence
Activity calls are given as the source filed them.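 The calls were made as follows: active = IC50 of 10 µM or lower; inactive = IC50 above 10 µM.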
Choose the fitting class; nothing outside Yes for active, No for inactive is accepted.

// below: answered molecules
Nc1cccc(-c2nc3ncnc(Nc4ccc(N5CCOCC5)cc4)c3[nH]2)c1: No
Cc1cc(NCCOc2ccccc2)nc(Nc2cccc(N(C)C)c2)n1: Yes
CC(C)n1cnc2c(Nc3ccc4c(c3)OCO4)nc(NCc3ccc4c(c3)OCO4)nc21: No
c1ccc2c(c1)OCC(c1nc(N3CCOCC3)c3cc(-c4cn[nH]c4)ccc3n1)O2 (centres undefined): No
FC(F)(F)c1ccc(Cn2cnc3c(Nc4ccc(N5CCOCC5)cc4)nc(N4CCN(Cc5ccc6c(c5)OCO6)CC4)nc32)cc1: No
OC1CCN(c2ccc(Nc3nccc(-c4cc(F)cc(N5CCN(C6CC6)CC5)c4)n3)cc2)CC1: No
CCN(CC)c1nc(Nc2ccc(N3CCOCC3)cc2)nc(Nc2ccc(-n3ccnc3)cc2)n1: Yes
O=C(NC1CC1)c1ccc(-c2nc(NCc3cccc(C(F)(F)F)c3)c3ncn(-c4ccccc4)c3n2)cc1: No

# evaluate next
Input line: GET /call?item= Cc1cc(Nc2ccc(N3CCOCC3)cc2)nc(N2CCN(Cc3ccc4c(c3)OCO4)CC2)n1 returns the recorded outcome of this test.
Output line: No

* * *

Biological target: Mitogen-activated protein kinase kinase kinase 5 (Homo sapiens) (UniProt Q99683)
Assay: MAP3K5 inhibition concentration-response curves – biochemical, AlphaScreen, MKK6 phosphorylation, dose response (AID 1159605)
Details: ASK1 MKK6 phosphorylation, AlphaScreen luminescence
Calls of active or inactive are those of the source.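 The calls were made as follows: active = IC50 of 10 µM or lower; inactive = IC50 above 10 µM.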
Assay Endpoint: IC50

Consider the following illustrative entries.
c1ccc(Nc2cc(-c3ccnc(Nc4ccc(N5CCOCC5)cc4)c3)nn2-c2ccccc2)cc1: > 19.2 µM (inactive)
O=C(Cc1cn(-c2ccc(Nc3nccc4ccccc34)nn2)c2ccccc12)Nc1ccc2c(c1)OCO2: > 21.6 µM (inactive)
Cn1ccc2cc(-c3cc(Nc4ccc(N5CCOCC5)cc4)nc(N)n3)ccc21: > 20 µM (inactive)

Input line: Consider the molecule shown here: FC(F)(F)c1ccc(Cn2cnc3c(Nc4ccc(N5CCOCC5)cc4)nc(N4CCN(c5ccccn5)CC4)nc32)cc1 What is its recorded IC50?
Output line: > 20 µM (inactive)

Input line: Consider the molecule shown here: c1cc(-n2cnc(N3CCOCC3)n2)ccc1Nc1ncc2ccc(-c3cn[nH]n3)cc2n1 What is its recorded IC50?
Output line: > 19.2 µM (inactive)

Input line: Consider the molecule shown here: Cc1ccc(-c2ncn(-c3ccc(Nc4nccc(-c5cncc(N6CCOCC6)c5)n4)cc3)n2)cn1 What is its recorded IC50?
Output line: > 19.2 µM (inactive)

Input line: Consider the molecule shown here: COc1ccc(CCNc2nc(N3CCN(Cc4ccc5c(c4)OCO5)CC3)nc3c2ncn3C2CCCCC2)cc1 What is its recorded IC50?
Output line: > 22.5 µM (inactive)

Input line: Consider the molecule shown here: Cc1ccc(-c2ncn(-c3ccc(Nc4nccc(-c5cncc6ccccc56)n4)cc3)n2)cn1 What is its recorded IC50?
Output line: > 19.2 µM (inactive)

* * *

Target: Mitogen-activated protein kinase kinase kinase 5 (Homo sapiens)
Assay: MAP3K5 inhibition concentration-response curves – biochemical, AlphaScreen, MKK6 phosphorylation, dose response (AID 1159605)
Details: ASK1 MKK6 phosphorylation, AlphaScreen luminescence
The source made the active and inactive calls.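 How the source made its calls: active means IC50 of 10 µM or lower; inactive means IC50 above 10 µM.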
Assay Endpoint: IC50

CC(=O)c1cccc(-c2nc(NCc3ccccc3)c3ncn(Cc4ccc(C(F)(F)F)cc4)c3n2)c1: > 19.2 µM (inactive)
Oc1ccc(CCNc2ncnc3nc(N4CCN(Cc5ccc6c(c5)OCO6)CC4)[nH]c23)cc1: > 16.9 µM (inactive)
CN(C)c1cccc(Nc2cc(Nc3ccccc3)ncn2)c1: > 22.2 µM (inactive)
CC(C)CNC(=O)c1ccc2c(c1)CC(c1nc3ncc(-c4ccnc(N)n4)cc3[nH]1)CO2 (centres undefined): > 19.2 µM (inactive)
Nc1nc(Nc2ccc(N3CCOCC3)cc2)cc(NC2CCN(Cc3ccccc3)CC2)n1: > 23.1 µM (inactive)
c1ccc(-n2cnc3c(NCc4cccnc4)nc(Nc4ccc(N5CCOCC5)cc4)nc32)cc1: inactive
O=C(Nc1ccccc1)c1ccccc1Nc1ccnc(Nc2ccc(N3CCOCC3)cc2)c1: > 19.2 µM (inactive)
Oc1ccc(CCNc2nc(N3CCN(Cc4ccc5c(c4)OCO5)CC3)nc3c2ncn3-c2ccsc2)cc1: inactive

Turning now to a further record.
Input line: Consider the compound shown here: Oc1ccc(CCNc2nc(N3CCN(c4ccccn4)CC3)nc3c2ncn3-c2ccsc2)cc1 What is its recorded IC50?
Output line: > 21.3 µM (inactive)

* * *

Biological target: Mitogen-activated protein kinase kinase kinase 5 (Homo sapiens) (UniProt Q99683)
Test: MAP3K5 inhibition concentration-response curves – biochemical, AlphaScreen, MKK6 phosphorylation, dose response (AID 1159605);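 also: ASK1 phosphorylation of MKK6 substrate detected with anti-phospho-MKK6 antibody beads; inhibitors lower the luminescent signal by blocking MKK6 phosphorylation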
Details: ASK1 MKK6 phosphorylation, AlphaScreen luminescence
Activity calls are given as the source filed them.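 How the source made its calls: active means IC50 of 10 µM or lower; inactive means IC50 above 10 µM.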
Choose the fitting class; nothing outside active, inactive is accepted.

// below: answered compounds
Cc1cc(NC2CCN(Cc3ccccc3)CC2)nc(Nc2ccc(N3CCOCC3)cc2)n1: inactive
COc1cc2nc(Nc3ccc(N4CCOCC4)cc3)nc(NCc3cccc(C(F)(F)F)c3)c2cc1OC: inactive
NC(=O)c1ccc(-c2nc(NCc3cccc(C(F)(F)F)c3)c3ncn(-c4ccccc4)c3n2)cc1: inactive
COc1ccc(CCNC(=O)c2ccnc(Nc3cccc(N(C)C)c3)c2)cc1: inactive
Fc1ccc(-c2c(-c3ccnc(Nc4ccc(N5CCOCC5)cc4)c3)noc2NCc2ccccc2)cc1: inactive
FC(F)(F)c1cccc(CNc2nc(Nc3ccc(N4CCOCC4)cc3)nc3c2ncn3-c2ccsc2)c1: active

Input line: GET /call?item= FC(F)(F)c1ccc(Cn2cnc3c(Nc4ccc5c(c4)OCO5)nc(Nc4ccccc4)nc32)cc1 returns the recorded outcome of this test.
Output line: inactive

Input line: GET /call?item= COc1ccc2c(c1)CC(C(=O)Nc1ccc(-c3cn[nH]c3)cc1OCCN(Cc1ccccc1)Cc1ccccc1)CO2 (centres undefined) returns the recorded outcome of this test.
Output line: inactive

Input line: GET /call?item= COc1ccc(-c2nc(C)cc(Nc3ccc(N4CCOCC4)cc3)n2)cc1 returns the recorded outcome of this test.
Output line: active

* * *

Target: Mitogen-activated protein kinase kinase kinase 5 (Homo sapiens) (UniProt Q99683)
Experiment: MAP3K5 inhibition concentration-response curves – biochemical, AlphaScreen, MKK6 phosphorylation, dose response (AID 1159605);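 also: ASK1 phosphorylation of MKK6 substrate detected with anti-phospho-MKK6 antibody beads; inhibitors lower the luminescent signal by blocking MKK6 phosphorylation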
Conditions: ASK1 MKK6 phosphorylation, AlphaScreen luminescence
Active and inactive are the calls of the source.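 How the source made its calls: active means IC50 of 10 µM or lower; inactive means IC50 above 10 µM.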
Assay Endpoint: IC50

Consider the following illustrative entries.
CN1CCN(c2nc(C3COc4ccccc4O3)nc3ccc(-c4cn[nH]c4)cc23)CC1 (centres undefined): > 19.2 µM (inactive)
CC(C)n1c(Nc2cccc(N(C)C)c2)nc2c(NC3CCN(Cc4ccccc4)CC3)ncnc21: > 18.8 µM (inactive)
c1cc(-n2cnc3c(Nc4ccc(N5CCOCC5)cc4)nc(N4CCN(Cc5ccc6c(c5)OCO6)CC4)nc32)cs1: inactive
c1ccc(OCCNc2nc(N3CCN(Cc4ccc5c(c4)OCO5)CC3)nc3c2ncn3C2CCCCC2)cc1: inactive
COc1cc2nc(Nc3cccc(N(C)C)c3)nc(NCc3cccc(C(F)(F)F)c3)c2cc1OC: > 18.9 µM (inactive)
FC(F)(F)c1ccc(Cn2cnc3c(NCc4ccccc4)nc(Nc4ccccc4)nc32)cc1: > 20.1 µM (inactive)
CN(C)c1cccc(Nc2nc(NCCc3ccc(O)cc3)c3ncn(C4CCCCC4)c3n2)c1: > 20 µM (inactive)
COc1cc2nc(Nc3ccc(N4CCOCC4)cc3)nc(Nc3cc(OC)c(OC)c(OC)c3)c2cc1OC: inactive

Turning now to a further record.
Input line: Consider the compound shown here: FC(F)(F)c1cccc(CNc2nc(Nc3ccc(N4CCOCC4)cc3)nc3nc[nH]c23)c1 What is its recorded IC50?
Output line: inactive

* * *

Target: Mitogen-activated protein kinase kinase kinase 5 (Homo sapiens) (UniProt Q99683)
Assay: MAP3K5 inhibition concentration-response curves – biochemical, AlphaScreen, MKK6 phosphorylation, dose response (AID 1159605);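 also: ASK1 phosphorylation of MKK6 substrate detected with anti-phospho-MKK6 antibody beads; inhibitors lower the luminescent signal by blocking MKK6 phosphorylation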
Conditions: ASK1 MKK6 phosphorylation, AlphaScreen luminescence
Calls of active or inactive are those of the source.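 How the source made its calls: active means IC50 of 10 µM or lower; inactive means IC50 above 10 µM.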
Assay Endpoint: IC50

Consider the following illustrative entries.
COc1cc2nc(Nc3ccc(N4CCOCC4)cc3)nc(NCc3ccccc3)c2cc1OC: > 20 µM (inactive)
Cc1cnc(-c2ccc(C(N)=O)cc2)nc1Nc1ccc(N2CCOCC2)cc1: inactive
c1ccc(N2CCN(c3nc(Nc4ccc(N5CCOCC5)cc4)c4ncn(C5CCCCC5)c4n3)CC2)nc1: > 22.8 µM (inactive)
FC(F)(F)c1ccc(Cn2cnc3c(NC4CCN(Cc5ccccc5)CC4)nc(Nc4ccc(N5CCOCC5)cc4)nc32)cc1: inactive
COc1ccc(CCNc2nc(Nc3cccc(N(C)C)c3)nc3c2ncn3C(C)C)cc1: > 20 µM (inactive)

Input line: Could you share what IC50 was measured for COc1cc2nc(Nc3nc4ccccc4n3C)nc(Nc3ccc(N4CCOCC4)cc3)c2cc1OC , tested on Mitogen-activated protein kinase kinase kinase 5 (Homo sapiens) (UniProt Q99683)?
Output line: 8.95 µM

Input line: Could you share what IC50 was measured for COc1cc2nc(Nc3nccc4ccccc34)nc(Nc3ccc(NC(C)=O)cc3)c2cc1OC , tested on Mitogen-activated protein kinase kinase kinase 5 (Homo sapiens) (UniProt Q99683)?
Output line: inactive

Input line: Could you share what IC50 was measured for CC(C)n1cnc2c(NC3CC3)nc(N3CCN(c4ccccn4)CC3)nc21 , tested on Mitogen-activated protein kinase kinase kinase 5 (Homo sapiens) (UniProt Q99683)?
Output line: inactive
